Target: T1, recombinant human CTLA4-Fc (human, UniProt P16410 36-162)
T1 construct: also called human CTLA4 fused with human FC fragment; CTLA4-Fc (Sino Biological, 11159-H03H)
T1 sequence (looked up): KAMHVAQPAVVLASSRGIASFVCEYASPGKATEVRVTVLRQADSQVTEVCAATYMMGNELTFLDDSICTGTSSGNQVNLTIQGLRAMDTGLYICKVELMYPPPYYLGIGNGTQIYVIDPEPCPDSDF
Test: ELISA, coated human CTLA4-Fc (as in Example 8)
Kindly state EC50 for each of the entries shown.
Answers are plain numbers, in nM.

Use these answered entries as a reference point.
TY23291 (antibody, V domains shown) VH: EVQLVESGGGLVQPGGSLRLSCAASGYSISSGYHWSWIRQAPGKGLEWLARIDWDDDKYYSTSLKSRLTISRDNSKNTLYLQLNSLRAEDTAVYYCARSYVYFDYWGQGTLVTVSS VL: DIQLTQSPSSLSASVGDRVTITCRASQSVRGRFLAWYQQKPGKAPKLLIYDASNRATGIPSRFSGSGSGTDFTLTISSLQPEDFATYYCQQSSSWPPTFGQGTKVEIKR; 3660
TY23286 (antibody, V domains shown) VH: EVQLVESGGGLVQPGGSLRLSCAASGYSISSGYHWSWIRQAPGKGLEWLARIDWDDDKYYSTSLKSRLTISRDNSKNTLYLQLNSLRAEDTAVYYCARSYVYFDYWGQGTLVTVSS VL: DIQLTQSPSSLSASVGDRVTITCRASQSVRGRFLAWYQQKPGKAPKLLIYDASNRATGIPSRFSGSGSGTDFTLTISSLQPEDFATYYCQQSSSWPPTFGQGTKVEIKR; 1500
TY23289 (antibody, V domains shown) VH: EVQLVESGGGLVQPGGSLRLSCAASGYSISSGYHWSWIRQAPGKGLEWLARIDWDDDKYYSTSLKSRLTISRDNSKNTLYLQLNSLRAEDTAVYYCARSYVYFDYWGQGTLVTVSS VL: DIQLTQSPSSLSASVGDRVTITCRASQSVRGRFLAWYQQKPGKAPKLLIYDASNRATGIPSRFSGSGSGTDFTLTISSLQPEDFATYYCQQSSSWPPTFGQGTKVEIKR; 133

Now take the following binder into account.
[Q] Look up EC50 for this binder: TY23280 (antibody, V domains shown) VH: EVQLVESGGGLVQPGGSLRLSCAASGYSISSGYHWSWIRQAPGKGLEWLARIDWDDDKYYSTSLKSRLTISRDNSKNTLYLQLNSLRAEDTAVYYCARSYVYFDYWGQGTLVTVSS VL: DIQLTQSPSSLSASVGDRVTITCRASQSVRGRFLAWYQQKPGKAPKLLIYDASNRATGIPSRFSGSGSGTDFTLTISSLQPEDFATYYCQQSSSWPPTFGQGTKVEIKR
[A] 2950

Recorded values, source patent US20190241662A1.
